Tested on: 313798-341-R-J2-PDC spheroids, viability
Assay: Anticancer human tumor 313798-341-R-J2-PDC patient-derived cervical squamous cell carcinoma cell line growth inhibition [PI3K]
Details: second compound 0.0316 µM; first compound 0.0316 µM; stronger effect = lower value; spheroids with HUVEC and MSC
Property: viability, T/C; scope: individual compounds
property_measured: viability, T/C (%)

CCCS(=O)(=O)Nc1ccc(F)c(C(=O)c2c[nH]c3ncc(-c4ccc(Cl)cc4)cc23)c1F + CC(Nc1ncnc2nc[nH]c12)c1cc2cccc(Cl)c2c(=O)n1-c1ccccc1
103
Cn1ncc(Cl)c1-c1cc(C(=O)NC(CN)Cc2cccc(F)c2)sc1Cl (stereo not drawn) + CC(Nc1ncnc2nc[nH]c12)c1cc2cccc(Cl)c2c(=O)n1-c1ccccc1
86.5
CC1(C)CCC(Nc2ncc(C(F)(F)F)c(-c3c[nH]c4c(P(C)(C)=O)c(C#N)ccc34)n2)CN1 (stereo not drawn) + COc1c(OCCCN2CCOCC2)ccc2c3n(c(=NC(=O)c4cnc(N)nc4)nc12)CCN3
27.4

* * *

Property: viability, T/C; scope: individual compounds
Test system: 313798-341-R-J2-PDC spheroids, viability
Experiment: Anticancer human tumor 313798-341-R-J2-PDC cell line growth inhibition [PI3K];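 further: spheroids exposed to compounds for seven days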;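 on viability, T/C: 100% = DMSO vehicle control viability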
Conditions: second compound 3.16 µM; first compound 0.01 µM; stronger effect = lower value; spheroids with HUVEC and MSC
property_measured: viability, T/C (%)

CC(=O)c1c(C)c2cnc(Nc3ccc(N4CCNCC4)cn3)nc2n(C2CCCC2)c1=O + Cc1nc(NC(=O)N2CCCC2C(N)=O)sc1-c1ccnc(C(C)(C)C(F)(F)F)c1
69.4
CC(=O)c1c(C)c2cnc(Nc3ccc(N4CCNCC4)cn3)nc2n(C2CCCC2)c1=O + CC(Nc1ncnc2nc[nH]c12)c1cc2cccc(Cl)c2c(=O)n1-c1ccccc1
97
Cn1ncnc1[C@H]1c2n[nH]c(=O)c3cc(F)cc(c23)N[C@@H]1c1ccc(F)cc1 + Cc1nc(NC(=O)N2CCCC2C(N)=O)sc1-c1ccnc(C(C)(C)C(F)(F)F)c1
54.9
Cn1ncnc1[C@H]1c2n[nH]c(=O)c3cc(F)cc(c23)N[C@@H]1c1ccc(F)cc1 + CC(Nc1ncnc2nc[nH]c12)c1cc2cccc(Cl)c2c(=O)n1-c1ccccc1
95.5
CCN1CCN(Cc2ccc(Nc3ncc(F)c(-c4cc(F)c5nc(C)n(C(C)C)c5c4)n3)nc2)CC1 + Cc1nc(NC(=O)N2CCCC2C(N)=O)sc1-c1ccnc(C(C)(C)C(F)(F)F)c1
62.6

* * *

Tested on: 313798-341-R-J2-PDC spheroids, viability
Assay: Anticancer human tumor 313798-341-R-J2-PDC cell line growth inhibition [PI3K];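 further: spheroids exposed to compounds for seven days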
Conditions: curve of first compound; second compound 0.316 µM; spheroids with HUVEC and MSC
property_measured: IC50

CC(C)n1nc(-c2ccc3oc(N)nc3c2)c2c(N)ncnc21 + CC(Nc1ncnc2nc[nH]c12)c1cc2cccc(Cl)c2c(=O)n1-c1ccccc1
65.1 nM
C=CC(=O)N1CCN(c2nc(=O)n(-c3c(C)ccnc3C(C)C)c3nc(-c4c(O)cccc4F)c(F)cc23)C(C)C1 (stereo not given) + COc1c(OCCCN2CCOCC2)ccc2c3n(c(=NC(=O)c4cnc(N)nc4)nc12)CCN3
< 31.6 nM
Cn1cnc2c(F)c(Nc3ccc(Br)cc3Cl)c(C(=O)NOCCO)cc21 + CC(Nc1ncnc2nc[nH]c12)c1cc2cccc(Cl)c2c(=O)n1-c1ccccc1
> 3000 nM
CC(=O)c1c(C)c2cnc(Nc3ccc(N4CCNCC4)cn3)nc2n(C2CCCC2)c1=O + Cc1nc(NC(=O)N2CCCC2C(N)=O)sc1-c1ccnc(C(C)(C)C(F)(F)F)c1
> 100 nM
CC1(C)CCC(CN2CCN(c3ccc(C(=O)NS(=O)(=O)c4ccc(NCC5CCOCC5)c([N+](=O)[O-])c4)c(Oc4cnc5[nH]ccc5c4)c3)CC2)=C(c2ccc(Cl)cc2)C1 + COc1c(OCCCN2CCOCC2)ccc2c3n(c(=NC(=O)c4cnc(N)nc4)nc12)CCN3
< 31.6 nM
